Taken from patent US11873336.

Target: T1, human CD22 protein (recombinant CD22 extracellular domain) (human, UniProt P20273 20-687)
T1 construct: extracellular domain; also called SIGLEC-2
T1 sequence (looked up): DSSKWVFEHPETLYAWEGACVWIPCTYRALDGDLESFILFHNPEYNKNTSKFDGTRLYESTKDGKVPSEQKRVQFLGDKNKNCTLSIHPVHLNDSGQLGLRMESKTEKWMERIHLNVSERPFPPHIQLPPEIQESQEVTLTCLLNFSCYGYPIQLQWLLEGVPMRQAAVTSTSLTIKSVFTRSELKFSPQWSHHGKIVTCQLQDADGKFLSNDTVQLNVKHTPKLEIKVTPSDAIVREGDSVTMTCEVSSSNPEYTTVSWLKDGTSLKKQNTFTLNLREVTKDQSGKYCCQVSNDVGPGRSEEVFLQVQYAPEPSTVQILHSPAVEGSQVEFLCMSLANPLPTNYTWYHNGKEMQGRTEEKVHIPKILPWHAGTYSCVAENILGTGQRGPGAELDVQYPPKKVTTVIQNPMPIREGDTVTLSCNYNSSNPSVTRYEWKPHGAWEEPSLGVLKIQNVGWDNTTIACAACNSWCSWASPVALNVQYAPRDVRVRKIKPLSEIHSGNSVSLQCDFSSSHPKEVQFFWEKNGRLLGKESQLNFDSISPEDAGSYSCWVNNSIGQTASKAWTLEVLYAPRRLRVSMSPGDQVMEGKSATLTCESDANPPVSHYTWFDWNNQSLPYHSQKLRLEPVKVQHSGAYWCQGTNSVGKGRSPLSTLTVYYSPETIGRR
Assay: ELISA on recombinant CD22 extracellular domain and/or cell binding

BINDER: anti-CD22 heavy chain-only antibody with the VH of SEQ ID NO: 36 (antibody, V domains shown, Heavy chain-only antibody (UniAb), human IgG) VH: QLQLQESGPGLVKPSETLSLTCTVSGDSISSGDYYWGWIRQPPGKGLEWIGHIYYSGATYYNPSLKNRVTISVDTSRNQFSLKLSSVTAADTAVYYCTREDSSSWRSRGQGTLVTVSS
binding result: binds
--
BINDER: anti-CD22 heavy chain-only antibody with the VH of SEQ ID NO: 35 (antibody, V domains shown, Heavy chain-only antibody (UniAb), human IgG) VH: QLQLQESGPGLVKPSETLSLTCTVSGDSISSGDYYWGWIRQPPGKGLEWIGHIYYSGATYYNPSLENRVTISVDTSKNQFSLKLSSVTAADTAVYYCTREDSSSWRSRGQGTLVTVSS
binding result: binds
